Entry source: PubChem BioAssay AID485317

SYSTEM_NAME: FAD-linked sulfhydryl oxidase ALR (Homo sapiens) (UniProt P55789)
Sequence (P55789 whole entry, looked up): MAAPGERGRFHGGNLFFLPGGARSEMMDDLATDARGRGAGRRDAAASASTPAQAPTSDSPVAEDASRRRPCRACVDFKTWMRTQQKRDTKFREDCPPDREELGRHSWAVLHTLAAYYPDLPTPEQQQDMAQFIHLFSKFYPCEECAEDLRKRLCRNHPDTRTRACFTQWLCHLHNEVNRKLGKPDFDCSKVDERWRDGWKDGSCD
ASSAY_DETAILS: ALR-catalysed DTT oxidation blockers – biochemical, H2O2 detection, HRP-luminol luminescence, single point, primary screen (AID 485317)
EXPERIMENTAL_CONDITIONS: purified ALR, concentration not given here
The whole screen tested about 290,000 compounds, of which about 11,000 (3.8%) were called active.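 How the source made its calls: active means mean replicate inhibition above about 79%, with every replicate also reaching it (limit read from the data); inconclusive means only one of the two criteria met; inactive means mean below limit and not every replicate reaching it.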 The list comes from a sample in which actives are over-represented; it also holds close analogues and randomly drawn compounds.
Outcomes you can answer with include only these: active, inactive

Answered cases to consult:
**Query** Query: recorded result category for `O=C(COc1ccc(Cl)cc1)Nc1ccc2c(c1)OCO2` in this test
**Result** inactive

**Query** Query: recorded result category for `CCOc1cc2[nH]c(=S)n(Cc3ccc(C(=O)N4CCN(C)CC4)cc3)c(=O)c2cc1OCC` in this test
**Result** inactive

**Query** Query: recorded result category for `CCOc1cc(/C=N/NC(=O)CN2CCCCC2)ccc1O` in this test
**Result** active

**Query** Query: recorded result category for `O=C(CC(=O)N/N=C\c1ccc(F)cc1)NCCc1ccccc1` in this test
**Result** inactive

**Query** Query: recorded result category for `NNC(=O)COc1ccc(C2SCCS2)cc1` in this test
**Result** active

**Query** Query: recorded result category for `Cc1cc(C(=O)Nc2nnc(C3CC3)s2)c(C)s1` in this test
**Result** inactive

More entries:
**Query** Query: recorded result category for `COc1ccc(OCC(=O)NNC(=O)C2CCC2)cc1` in this test
**Result** inactive

**Query** Query: recorded result category for `COc1ccc(Cn2c(=S)[nH]c3cc(C(=O)N4CCCCC4)ccc3c2=O)cc1` in this test
**Result** inactive

**Query** Query: recorded result category for CC1=NNC(=O)C1CCC(=O)N/N=C\c1ccc(Cl)c(Cl)c1 (stereo unspecified) in this test
**Result** inactive

**Query** Query: recorded result category for `COc1cc(/C=N/NC(=O)c2ccoc2C)ccc1OCCN1CCCCC1` in this test
**Result** inactive

**Query** Query: recorded result category for `CCOc1cc(C(=O)Nc2ccc(S(=O)(=O)Nc3cnc4ccccc4n3)cc2)cc(OCC)c1OCC` in this test
**Result** inactive

----------
SYSTEM_NAME: FAD-linked sulfhydryl oxidase ALR (Homo sapiens) (UniProt P55789)
ASSAY_DETAILS: ALR-catalysed DTT oxidation blockers – biochemical, H2O2 detection, HRP-luminol luminescence, single point, primary screen (AID 485317)
EXPERIMENTAL_CONDITIONS: purified ALR, stronger effect = higher value, concentration not given here
The campaign covered roughly 290,000 compounds. About 11,000 (3.8%) were called active. For the sample, actives were picked, then their nearest neighbours and some compounds at random.
Listed compounds paired with reported inhibition
Enter your answer as a number in %; do not include the unit.

Please review the following examples before continuing.
**Query** Give the value of inhibition reported for the following: CCCC(O)(c1ccc(OC)cc1)C(CN(C)C)c1ccccc1 (stereo unspecified)
**Result** 98.6

**Query** Give the value of inhibition reported for the following: `CCCc1nc2ccccc2c(=O)n1/N=C/c1ccc(O)c(O)c1`
**Result** 98.6

**Query** Give the value of inhibition reported for the following: `CN(CC(=O)NC1CCCC1)S(=O)(=O)c1cnc[nH]1`
**Result** -4.3

**Query** Give the value of inhibition reported for the following: `COc1ccc(NC(=O)CCN2CCCC2)c(OC)c1`
**Result** -4.61

**Query** Give the value of inhibition reported for the following: CC(OC(=O)c1c(F)cccc1F)C(=O)NCCC1=CCCCC1 (stereo unspecified)
**Result** -6.45

Next compound, please.
**Query** Give the value of inhibition reported for the following: COc1ccc(C(O)(C2CCCCC2)C(CN2CCCC2)c2ccccc2)cc1 (stereo unspecified)
**Result** -2.71
